MEASUREMENT DESCRIPTION: caspase-8 TRAIL sensitization, hit retest, confirmation, cell-based, NB7+caspase-8, with/without TRAIL, luminescence panel (AID 651596)
TEST PARAMETERS: NB7 neuroblastoma + caspase-8, without TRAIL, luminescence viability, without TRAIL, mean of runs, at 10 µM
Provide the reported activity of each item.
Express your answer in %, writing the number without its unit.

Look up activity of `CCC(=O)N1CCN(c2ccc(NC(=O)c3cc4ccccc4o3)cc2Cl)CC1` and report it.
54.4

# return recorded activity for entry `O=C(Nc1cccc(-n2cnnn2)c1)c1ccc(C(F)(F)F)cc1`
10.3

Report activity, nothing else, for this molecule: CC(C)CC(NC(=O)c1ccc(Cl)cc1)C(=O)OCC(=O)c1ccc2c(c1)NC(=O)CO2 (configuration not stated)
97.4

Provide activity value for the following molecule: `Cc1ccc(C(=O)N/N=C\c2ccc[nH]2)cc1[N+](=O)[O-]`
79.4

// Input: `COc1cccc2oc3cc(C#CC4(O)CCCCC4)ccc3c(=O)c12` . Output its activity only.
68.8

Assign activity to the following record: `CCOc1ccc(-n2c(SCC(N)=O)nc3c([nH]c4ccccc43)c2=O)cc1`
56.5

State its activity: `C=CCOc1ccc(/C=C/C(C)=N\O)cc1`
71.7

Give a short answer stating reported activity for `O=C(Cn1ncc(Cl)c(Cl)c1=O)N1CCc2ccccc21` .
99.6

Output activity of `Cc1ccc(-c2nc3ccccc3[nH]2)s1`
58.2

Entry `COc1ccc(NC(=O)c2ccc(C)cc2)cc1` needs its activity filled in; supply it.
60.3

Answer with reported activity of `COC(=O)c1c(-c2ccccc2)csc1NC1=NS(=O)(=O)c2ccccc21`
73.3

Answer with the recorded activity for the molecule listed here: `C/C(=N\NC(=O)COc1ccc(C(C)(C)C)cc1)c1cc2ccccc2o1`
84.2

// Input: `COc1cc(/C=C(/C#N)c2nc3ccccc3[nH]2)ccc1OCC(=O)Nc1ccccc1C` . Output its activity only.
97.8

Return the recorded activity value; entry: `C#Cc1cc(N2CCN(C(=O)c3ccoc3)CC2)n2nc(-c3cccc(Cl)c3)cc2n1`
97.3

Given `CCN1CCN(Cc2ccc(NC(=O)c3cc(NC(=O)c4cc5cccc(OC)c5o4)cc(OC)c3)cc2C(F)(F)F)CC1` , respond with its activity.
79.5

Specify activity for `COC(=O)CSc1ncnc2c1sc1nc3c(cc12)COC(C)(C)C3` and stop.
86.8

Read the entry `CC(C)(C)C(=O)N1CCc2cc(-c3csc(N)n3)ccc21` and write its reported activity.
88.1

Give the reported value of activity for this record: `Cc1nn(-c2ccccc2Cl)c(Cl)c1/C=N/Nc1cccc(C(=O)O)c1`
62.9

Give the reported activity for this molecule. `O=C(COC(=O)c1ccccc1C(=O)c1ccc(Cl)c([N+](=O)[O-])c1)NC1CCCCCC1`
97.2

In one line, give reported activity of the entry `COc1cccc(/C=N/Nc2nn3cnnc3c3ccccc23)c1` .
61.4

Identify the reported activity for the following entry. `Fc1cccc2sc(Nc3nc4cc5c(cc4s3)OCCO5)nc12`
28.4

Return activity (reported value) for this molecule: `C[C@@H](CO)NC(=O)c1ccc2c3n(nc2c1)-c1ccccc1CO3`
91.8

* * *

SYSTEM TESTED: Sentrin-specific protease 7 (Homo sapiens)
MEASUREMENT DESCRIPTION: SENP7 protease inhibitors, retest, confirmation, biochemical, luminescence, single concentration (AID 488917)
TEST PARAMETERS: recombinant SENP7, Z-RLRGG-aminoluciferin luminescence, 40 min; at 12.5 µM; stronger effect = higher value
The other results are listed elsewhere or left out.
Can you tell me inhibition for the items I'm about to list?
The reply should contain only the number, in %.

Fill in reported inhibition for this entry: `Clc1ccc(Nc2ccc3ccccc3n2)cc1`
97.8

Please list inhibition recorded for the molecule `CC(=O)Nc1cccc(C(=O)OCC(=O)c2ccc3c(c2)OCO3)c1`
51.3

Please give measured inhibition of the following entry: `c1ccc(-c2noc(-c3cccs3)n2)nc1`
98.9

Tell us which inhibition value is on record for `Cc1csc(SCC(=O)Nc2sccc2C#N)n1`
101

State its inhibition for this molecule: Cc1ccc(S(=O)(=O)C(C#N)c2nc3ccccc3nc2N2CCCC2)cc1C (configuration not stated)
4.3

Report inhibition, nothing else, for this molecule: `COc1ccccc1N=Cc1c(O)c2ccccc2oc1=O`
49.6

Indicate its recorded inhibition; the molecule in question is `N#Cc1c(N2CCCCC2)nc(N)c2c(N)nc(SCC(=O)O)cc12`
61.9

Name the recorded inhibition of the item `O=C(c1ccc(CSc2ccccc2)cc1)N1CCCCCC1` in your answer.
80

Give the reported inhibition for this molecule. `CCCc1cc(=O)oc2c(C)c(OCC(=O)Nc3ccccn3)ccc12`
23.3

Consider the molecule `Clc1ccc(C2=CSC3=Nc4cccc5cccc(c45)N23)cc1` . State its measured inhibition.
7.2

Return the recorded inhibition value; entry: `c1ccc2sc(NN=C3CCCC3)nc2c1`
98.8

Identify measured inhibition corresponding to `Cn1cccc1C(=O)OCC(=O)c1ccc(Br)s1`
95.5

* * *

MEASUREMENT DESCRIPTION: inhibitors of PAF-induced NFkB signaling in CF airway cells, dose response, cell-based, uHTS hits, panel, cytotoxicity readout (AID 624344)
TEST PARAMETERS: CF bronchial epithelial cells, PAF-induced NFkB reporter inhibition, with PAF, run 1; at 79 µM (top of the series) unless noted
For each entry below, report its inhibition value.
Number only, in %; omit the unit.

Input `CN(CCC#N)C(=O)COC(=O)c1ccccc1C(=O)c1ccc(Cl)c([N+](=O)[O-])c1` , output reported inhibition.
96.7

Hello, please tell me recorded inhibition for this one: `C=C(c1ccc2nc(NC(=O)OC)[nH]c2c1)c1cccs1`
101

Report inhibition for `C[C@H](O)[C@@H]1CN2CCc3c([nH]c4ccc(-c5ccc6c(c5)OCO6)cc34)[C@@H]2C[C@@H]1N(C)C(=O)Nc1ccc(F)cc1`
99.8

Consider the compound `Cc1cccc(NC(=O)c2cc(-c3ccc(C)s3)nc3ccccc23)n1` . State its measured inhibition.
98.5

Fill in reported inhibition for this entry: COc1cc2c(c(OC)c1OC)-c1ccc(NCc3ccccc3)c(=O)cc1C(NC(C)=O)CC2 (stereo not given)
94.4

Tell me measured inhibition for `COc1ccccc1NS(=O)(=O)c1cccc(-n2c(O)c(C=Nc3ccccc3C(=O)O)c3ccccc3c2=O)c1` please.
105

Please look at this compound and report its inhibition: `COc1ccc(COc2cc(-c3cccc(OC)c3)nc3ccc(NC(=O)c4cccnc4)cc23)cc1`
98.7

// fetch inhibition given entry `O=c1[nH]nc(Sc2ncnc3sccc23)n1CCc1ccccc1`
100

Respond only with inhibition recorded for `O=C(Nc1ccc(C(=O)N2CCOCC2)cc1)Nc1cccc(C(F)(F)F)c1`
108

Let me know recorded inhibition for COc1ccc2[nH]c3c(c2c1)CCN1C(=O)C(CC(=O)NCCC2=CCCCC2)C[C@H](C(=O)N2CCCCC2)[C@@]31CCc1ccccc1 (stereo not given in full) , thanks.
104

State its inhibition: `O=[N+]([O-])c1ccc(NC(=S)NCCc2ccc(F)cc2)cc1`
115

Name the recorded inhibition of the compound listed here: `Cc1cccc(CS(=O)(=O)c2ncc(Cl)c(C(=O)NCc3ccccc3)n2)c1`
92.1

// Input: `O=C(Nc1ccc(Br)c2ccccc12)c1ccc2ccccc2c1O` . Output its inhibition only.
112

Output measured inhibition for this item: Cc1nn(-c2nccs2)c2c1C(=O)CC(C)(C)C2Br (stereo not given)
108

Supply recorded inhibition for CC1Sc2ccc(Cl)cc2-c2nc(N)ncc21 (stereo not given) here.
102

Output inhibition of `CS(=O)(=O)Nc1ccc(-c2cnc3cccnn23)cc1`
95.8

Fill in inhibition for record `CC(C)C[C@H]1CNC(=S)N1C[C@H]1CCCN1C[C@H](Cc1ccccc1)N1C[C@H](Cc2ccc(O)cc2)N(CC2CCCCCC2)C1=S`
103

Please list inhibition recorded for the compound `CC(=O)Oc1c(C(=O)c2nnc(C)o2)c(=O)n(Cc2ccccc2)c2ccccc12`
112

Output measured inhibition for this item: CCC(Oc1ccccc1)C(=O)Nc1ncc([N+](=O)[O-])s1 (stereo not given)
112

* * *

MEASUREMENT DESCRIPTION: luciferase luminescence interference by compounds, confirmation, artefact control for SENP inhibitor project, biochemical, single concentration, SENP8 reaction pre-completed (AID 488919);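 further: plate controls were DMSO wells with completed reaction for no effect and substrate without enzyme for full effect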
TEST PARAMETERS: Pre-incubated SENP8/Z-RLRGG-aminoluciferin, at 12.5 µM
The other results are listed elsewhere or left out. The source made the active and inactive calls.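 Rule for the calls: active = mean inhibition above about 50% when retested at one dose (limit read from the data); inactive = the rest.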
I would appreciate it if you answered using one of these outcomes: active, inactive

Test call, this compound: `COc1cc(/C=C(\C#N)c2nc3ccccc3[nH]2)ccc1O`
active

Please share the test call associated with `Cc1cc(C(=O)N/N=C/c2ccc(N3CCOCC3)cc2)c(C)o1` .
inactive

Test call, this compound: `Oc1ccc(N=Cc2sc3ccccc3c2Cl)cc1`
inactive

Outcome? `CC(=O)Oc1ccc2c(c1)C(=O)c1ccccc1C2=O`
inactive

Check the results log: what was the call for `Cc1cccc(/C=N/NC(=O)CNc2cccc3ccccc23)n1` ?
inactive

Hello, I am checking results. What call was entered for `O=[N+]([O-])c1ccc(C=Nc2ccc(Cl)cc2Cl)s1` ?
inactive

Hey, what did the test say about `O=c1oc2ccccc2cc1-c1cn(-c2ccccc2)c(=S)[nH]1` ?
inactive

Could you check what this test reported for `O=c1c2c(nc3cc(-c4cccc(Cl)c4)[nH]n13)CCCC2` ?
inactive

Look up the recorded call for `COc1ccc(C(=O)COC(=O)c2ccc([N+](=O)[O-])s2)cc1OC` in this test.
inactive

// outcome(item) with item = `O=C(Nc1ccc2c(c1)CCC2)c1cccc(S(=O)(=O)Nc2ccccc2Cl)c1`
inactive
